Tested on: 7G8
Test: qHTS profiling for inhibitors of Plasmodium falciparum proliferation (AID 504749); also: nearly all actives have a fitted effect of over 60% in size
Conditions: P. falciparum in erythrocytes, SYBR Green DNA, 72 h; series mostly up to 28.7 µM
Records with an inconclusive call do not appear. The source made the active and inactive calls. Calls follow the shape of the dose curve; as a rule, active = well fitted inhibition curve with a large enough effect; inconclusive = small, poorly fitted or top-dose-only effect; inactive = flat fitted curve, though single readings scatter.
Labels: active, inactive

smiles-string: COc1cc(/C=C/C(=O)CC(=O)/C=C/c2ccc(O)c(OC)c2)ccc1O
label-class: active

smiles-string: C=C(Nc1ccc(OCC)cc1)Nc1ccc(OCC)cc1
label-class: inactive

smiles-string: CCCCCCOc1ccccc1C(N)=O
label-class: inactive

smiles-string: C=CCCCCCCCCC(=O)O
label-class: inactive

smiles-string: NC(=O)C(c1ccccc1)(c1ccccc1)[C@@H]1CCN(CCc2ccc3c(c2)CCO3)C1
label-class: active

smiles-string: CCCCCCCCCCCC(=O)[O][Sn]([CH2]CCC)([CH2]CCC)[O]C(=O)CCCCCCCCCCC
label-class: inactive

smiles-string: Cc1c(Nc2ncccc2C(=O)O)cccc1C(F)(F)F
label-class: inactive
